target: Alpha-galactosidase (Aspergillus niger)
procedure-details: Compound tested for inhibition of alpha-galactosidase from Aspergillus niger
parameter: pKi
API: returns pKi as number; meaning -log10 of concentration in mol/L.

Give pKi for `C[C@@H](OC[C@H]1O[C@@H](O)[C@H](O)[C@H](O)[C@@H]1O)[C@H](N)C(=O)O` 3.52

Give pKi for `N[C@@H](COC[C@H]1O[C@@H](O)[C@H](O)[C@H](O)[C@@H]1O)C(=O)O` 3.40
